The reported measurements were obtained from ChEMBL document CHEMBL3091418.

Biological target: Polyunsaturated fatty acid 5-lipoxygenase (Homo sapiens) (UniProt P09917)
Sequence (whole entry): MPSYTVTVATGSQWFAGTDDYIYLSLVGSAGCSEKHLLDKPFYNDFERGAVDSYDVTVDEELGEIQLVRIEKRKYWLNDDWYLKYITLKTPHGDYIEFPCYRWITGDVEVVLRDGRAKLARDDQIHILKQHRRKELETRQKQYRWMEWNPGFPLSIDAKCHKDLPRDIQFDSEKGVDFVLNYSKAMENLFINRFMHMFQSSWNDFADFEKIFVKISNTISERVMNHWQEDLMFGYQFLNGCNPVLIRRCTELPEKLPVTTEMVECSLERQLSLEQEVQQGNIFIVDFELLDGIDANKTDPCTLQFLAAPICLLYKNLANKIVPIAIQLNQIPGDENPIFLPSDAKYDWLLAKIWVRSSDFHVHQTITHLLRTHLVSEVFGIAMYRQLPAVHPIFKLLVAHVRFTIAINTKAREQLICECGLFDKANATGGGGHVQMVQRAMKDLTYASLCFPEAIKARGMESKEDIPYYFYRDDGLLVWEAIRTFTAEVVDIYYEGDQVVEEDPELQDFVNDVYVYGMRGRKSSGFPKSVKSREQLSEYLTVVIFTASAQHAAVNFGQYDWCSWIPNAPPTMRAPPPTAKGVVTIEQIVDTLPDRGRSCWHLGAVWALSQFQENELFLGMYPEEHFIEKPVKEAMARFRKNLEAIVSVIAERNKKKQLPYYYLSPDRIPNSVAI
Assay: Inhibition of human 5-LOX using lionleic acid as substrate assessed as formation of 13-HPOD at 50 uM incubated for 10 mins prior to substrate addition measured after 10 secs by UV absorbance assay
Activity calls are given as the source filed them. The calls are words filed in the database; no cut-off is given here.
// classify into true (active), false (inactive)

CCCCCc1cccc(O)c1C(=O)O
true

Q) Could you check what this test reported for "CCCCCCCCCCc1cccc(O)c1C(=O)O" ?
A) true

Q) Hi, do you know how "CCCCCCCCCOc1ccc(COc2cccc(O)c2C(=O)O)cc1" came out in this test?
A) false

Q) Outcome logged for "CCCCCCCCCCCCCCCc1cccc(O)c1C(=O)O" in this assay:
A) true

Q) Answer briefly: the call reported for "CCCCCCCOc1ccc(COc2cccc(O)c2C(=O)O)cc1" in this assay.
A) false

Q) Tell me the recorded outcome of this test for "Oc1ccccc1-c1nc2ccccc2o1" .
A) false

Q) Could you kindly confirm the outcome this assay logged for "CCCCCCCCCCCCCCCc1cc(O)cc(O)c1C(=O)O" ?
A) true

----------
Target: UniProt P09917
Test: Binding affinity to human 5-LOX using linoleic acid as substrate
observable: pKi
By convention, pKi is the negative base-10 log of a molar concentration.

Q) Report measured pKi on UniProt P09917; entry: CC(C)CCCC(C)CCOc1ccc(COc2cccc(O)c2C(=O)[O-])cc1.[K+] (stereo unspecified)
A) 4.15
